- Test system: NCI/ADR-RES ovarian
- assayOverview: NCI tumour cell line growth inhibition, 48 h
measuredMetric: TGI

Examples from the recorded data:
{"compound": "COC1=CC(=O)c2nc(-c3cccc(C)n3)[nH]c2C1=O", "TGI": "> 100 µM"}
{"compound": "CCOC(=O)[C@@H](N)CCC(=O)N[C@@H](CSCc1ccccc1)C(=O)N[C@@H](C(=O)OCC)c1ccccc1", "TGI": "> 100 µM"}
{"compound": "CN1c2ccc(Cl)cc2C(=O)NC1c1ccc([N+](=O)[O-])s1 (stereo unspecified)", "TGI": "35.3 µM"}
{"compound": "O=C1C=CC[C@H]2O[C@@H](COC(=O)Cc3ccccc3)C[C@H]2O1", "TGI": "> 100 µM"}
{"compound": "Oc1ccc(-c2nc(-c3cccnc3)c(-c3ccc(Cl)cc3)[nH]2)cc1", "TGI": "36.9 µM"}

N#C/C(=C1C=C(Br)/C(=N\O)C=C\1Cl)c1cccc2ccccc12 has a reported TGI of > 100 µM
